Measurement Description: protein stability index of a GFP-peptide fusion (yeast GPS) (PSI 1-4); higher = more stable; sorted into four equal gates, so the index is relative within each strain
Experimental Parameters: doa10∆
Measured protein stability index of individual entries
Answer using only a numeral; do not append any unit.

RGYWGTNLGQPHSLATK [RPS2] : 2.68
KTKFQYKFLDQNSDAST [YIL149C/MLP2] : 3.08
VLPIFTTVFFSRQKSGL [YML031W/NDC1] : 1.53
KKFATVPTGGASSAAAG [RPP2B] : 3.17
VNGLLQVLMDINTLNGG [GAL11] : 2.98

[in] Name the recorded protein stability index of the sequence listed here: LEQKIHEVEEILNELQP [SMC1]
[out] 3.04

[in] Name the recorded protein stability index of the sequence listed here: KAKFTSLAVRSLQDRSS [YCS4]
[out] 2.15

[in] Name the recorded protein stability index of the sequence listed here: QQQQQQNGQQPPTTSNL [YML103C/NUP188]
[out] 2.5

[in] Name the recorded protein stability index of the sequence listed here: GEVMKELSEEKYIVKAS [RPT4]
[out] 3.25

[in] Name the recorded protein stability index of the sequence listed here: FIMASVGKYDKAIELLE [SRP72]
[out] 2.37

[in] Name the recorded protein stability index of the sequence listed here: TKLIQYEHNGRTLEAIT [CSL4]
[out] 2.22

[in] Name the recorded protein stability index of the sequence listed here: PSLNKTINGKVNGRTKS [GAL11]
[out] 3.06

[in] Name the recorded protein stability index of the sequence listed here: DDIFIPQNMLFEGCYYT [RPC25]
[out] 2.51

[in] Name the recorded protein stability index of the sequence listed here: HDVGELFWKVKEEEGSF [PRE2]
[out] 2.71

----------
Measurement Description: protein stability index of a GFP-peptide fusion (yeast GPS) (PSI 1-4); higher = more stable; sorted into four equal gates, so the index is relative within each strain
Experimental Parameters: san1∆
Entry flag: class 1 if protein stability index reaches 2; class 0 if it does not.

ESTETGYVIKVFNNGIV [DIS3] : class 1

[in] Please check the record NSDDFFMDNSYDIDEID [ESC2] and state if its protein stability index is at or above 2.
[out] class 1

[in] Please check the record VDFSKYNTNFNLLLREL [SRP72] and state if its protein stability index is at or above 2.
[out] class 1

[in] Please check the record ACLGNDGILRLYDALEP [YGL100W/SEH1] and state if its protein stability index is at or above 2.
[out] class 0

[in] Please check the record QVSINSNKILVYESEME [YIL149C/MLP2] and state if its protein stability index is at or above 2.
[out] class 0

[in] Please check the record VPSYIHVEKERASTELS [YIL149C/MLP2] and state if its protein stability index is at or above 2.
[out] class 1

[in] Please check the record DSIDLAPNTLTNILISP [YML103C/NUP188] and state if its protein stability index is at or above 2.
[out] class 0

[in] Please check the record SHAVEFFMSERSSRLHI [YML103C/NUP188] and state if its protein stability index is at or above 2.
[out] class 1

[in] Please check the record EKPQFKDGETTDANGKT [RPO26] and state if its protein stability index is at or above 2.
[out] class 1

[in] Please check the record PRGLNSARKLRVHRRNN [RPS23A] and state if its protein stability index is at or above 2.
[out] class 1

----------
Measurement Description: protein stability index of a GFP-peptide fusion (yeast GPS) (PSI 1-4); higher = more stable; sorted into four equal gates, so the index is relative within each strain
Experimental Parameters: ubr1∆
Measured protein stability index of individual entries
Answer using only a numeral; do not append any unit.

Below, 6 sequences whose answers are already recorded.
TPSSNSNSSELEPDYQA [MED1] : 3.43
PKDKAIKRMAIRNIVEA [RPS26A] : 1.95
LKSQMDTSKALLNVSVN [SKI6] : 3.07
LDEMELHPYNSRGLFEK [YDL116W/NUP84] : 3.22
LYGTAIGARSQGAKTYL [PRE5] : 3.13
DHIAIDWEDEEKYEDED [DSN1] : 2.12

[in] Name the recorded protein stability index of the sequence listed here: HELGINIDSLKFNELVK [BRR2]
[out] 2.9

[in] Name the recorded protein stability index of the sequence listed here: ARDLLDDLEKTLDKKDS [RPN9]
[out] 2.56

[in] Name the recorded protein stability index of the sequence listed here: ARILARSERKRTKISRG [ITC1]
[out] 2.06

[in] Name the recorded protein stability index of the sequence listed here: ITYTPVRHGRAGATTSR [RPS15]
[out] 2.92

[in] Name the recorded protein stability index of the sequence listed here: VMWGKVTRTHGNSGVVR [RPL33A]
[out] 2.98

[in] Name the recorded protein stability index of the sequence listed here: GNPTNISSPIVANSPNK [YDL088C/ASM4]
[out] 1.82

[in] Name the recorded protein stability index of the sequence listed here: GLKRSQLDEFKNKYLKD [SWP82]
[out] 2.69

[in] Name the recorded protein stability index of the sequence listed here: TFFPRCIIAVSCTLLER [POP1]
[out] 1.63

[in] Name the recorded protein stability index of the sequence listed here: LARQVKLLLLNTSAIQE [YIL149C/MLP2]
[out] 1.65

----------
Measurement Description: protein stability index of a GFP-peptide fusion (yeast GPS) (PSI 1-4); higher = more stable; sorted into four equal gates, so the index is relative within each strain
Experimental Parameters: san1∆
Measured protein stability index of individual entries
Answer using only a numeral; do not append any unit.

HWLQLAKGVYRPNGRKD [POP1] : 3.2
EVGDVCINELDNWNAPL [RPO31] : 3.21
TRQFEGRSNEIVKTTTK [PRP8] : 2.89
IYKRGQAGVTKASVTIV [SMC2] : 1.78
NKKIYQWNKLTSFDIKR [POP6] : 2.18
HYLVLLVAKFLYPIFLL [YJR042W/NUP85] : 1.11

[in] Name the recorded protein stability index of the sequence listed here: KKLLEVHDIFSKIFNES [CDC53]
[out] 2.77

[in] Name the recorded protein stability index of the sequence listed here: RLKVFEGIPPPYDKKKR [RPL16A]
[out] 3.05

[in] Name the recorded protein stability index of the sequence listed here: LEESDVEDTLHVNKRKR [YOR098C/NUP1]
[out] 3.12

[in] Name the recorded protein stability index of the sequence listed here: LQILAMLLLNIFISSDH [YMR129W/POM152]
[out] 1.35

[in] Name the recorded protein stability index of the sequence listed here: KLNTLSEILSFDPVYTT [YML103C/NUP188]
[out] 2.85

[in] Name the recorded protein stability index of the sequence listed here: VDKNFDKLELYVLRNVL [MTW1]
[out] 2.81

[in] Name the recorded protein stability index of the sequence listed here: TPTDVIGVVSLTNGVTE [RRP6]
[out] 3.03

[in] Name the recorded protein stability index of the sequence listed here: VNDNDERAARVVKGRVE [RPO31]
[out] 3.15

[in] Name the recorded protein stability index of the sequence listed here: QNDELKFQGVLESEAQK [RPC34]
[out] 3.23

[in] Name the recorded protein stability index of the sequence listed here: RQQKLLEDQQRQQKLLL [SWI1]
[out] 3.03

[in] Name the recorded protein stability index of the sequence listed here: MGGVSALRGMFKDRFKD [FAS2]
[out] 3.41

[in] Name the recorded protein stability index of the sequence listed here: IGLRQFQQIQYENKQLY [POP1]
[out] 2.92

[in] Name the recorded protein stability index of the sequence listed here: LVSTLTTGISSTGAADG [SMC2]
[out] 2.93

[in] Name the recorded protein stability index of the sequence listed here: KKVSRRNARAARAAKIA [RPL13B]
[out] 2.63

[in] Name the recorded protein stability index of the sequence listed here: EFFSTNWLSIFNDFSNI [REC8]
[out] 2.09

[in] Name the recorded protein stability index of the sequence listed here: KTKYILQRPTATDEESV [CSN12]
[out] 2.95

[in] Name the recorded protein stability index of the sequence listed here: NANDETTAVEDEDDDLD [RPB4]
[out] 3.25

[in] Name the recorded protein stability index of the sequence listed here: LLEPPAKELQGIDPDET [RPO31]
[out] 3.31

[in] Name the recorded protein stability index of the sequence listed here: LRIELQSVYNDEKLKTE [SRB8]
[out] 3.26

----------
Measured protein stability index of individual entries
Measurement Description: protein stability index of a GFP-peptide fusion (yeast GPS) (PSI 1-4); higher = more stable; sorted into four equal gates, so the index is relative within each strain
Experimental Parameters: doa10∆
Answer using only a numeral; do not append any unit.

Below, 6 sequences whose answers are already recorded.
TSSNIVLETHESGIKPY [RPT6] : 2.55
DILSKLYLLLARVFEIW [SNF11] : 2.15
GEDSTKPLGPCDVFWVQ [POP1] : 3.12
RELILAKKQNYKLTNDE [YCG1] : 3.37
TETALMNLKKELQGYIE [SRB5] : 3.05
DDSLNRLAQNDGLLKNV [RPS21A] : 2.77

[in] Name the recorded protein stability index of the sequence listed here: LTQGINGKEVPLAKIYL [MED1]
[out] 2.52

[in] Name the recorded protein stability index of the sequence listed here: LLENPNCFFDVIVPQIV [DIS3]
[out] 3.23

[in] Name the recorded protein stability index of the sequence listed here: QVEKLGKKMEARGQSIW [RPN9]
[out] 1.34

[in] Name the recorded protein stability index of the sequence listed here: SDSLDIAQGIDLVRDID [SRP72]
[out] 3.29

[in] Name the recorded protein stability index of the sequence listed here: VSPNAAPRQEISEEETT [YAR002W/NUP60]
[out] 3.19

[in] Name the recorded protein stability index of the sequence listed here: VTQQKRSLDENRLEIKY [SMC1]
[out] 2.06

[in] Name the recorded protein stability index of the sequence listed here: LEFARITPMNDDQCMLI [SIN4]
[out] 2.63

[in] Name the recorded protein stability index of the sequence listed here: VRNKSYPVYTRLRTLCR [DIS3]
[out] 2.65

[in] Name the recorded protein stability index of the sequence listed here: AIGTKRYDSNSGGEREI [RPT2]
[out] 3.28
